Here's a batch of molecules along with measured IC50 for Glycogen synthase kinase-3 alpha (Homo sapiens, UniProt P49840).

Worked examples follow.
CC1(C)CC(=O)C2=C(C1)NC1=C(CN=N1)C21CN(S(=O)(=O)c2ccccn2)C1 [US20250313563, Compound 913262]: < 0.1 µM
CC1(C)CC(=O)C2=C(C1)NC1=C(CN=N1)C21CCS(=O)(=O)CC1 [US20250313563, Compound 896013]: 0.1 to 1 µM
CCC1(c2cccc(C3CCCC3)c2)C2=CN=NC2NC2=C1C(=O)CC(C)(C)C2 (stereo not drawn) [US20250313563, Compound 949082]: < 0.1 µM

[ask] I am curious: what IC50 value has been reported for CC[C@]1(c2cccc(C(F)F)c2)C2=C(CC(C)(C)NC2=O)NC2N=NC(C(F)(F)F)=C21 (stereo partly drawn) [US20250313563, Compound 951946] ?
[reply] 0.1 to 1 µM

[ask] Param item: CC[C@]1(c2cccc(N(C)c3cnccn3)c2)C2=CN=NC2NC2=C1C(=O)CC(C)(C)C2 (stereo partly drawn) [US20250313563, Compound 915316]
[reply] < 0.1 µM

[ask] Param item: CC[C@]1(c2cccc(C(F)(F)F)c2)C2=CN=NC2NC2=C1C(=O)N(CCOC)CC2 (stereo partly drawn) [US20250313563, Compound 949599]
[reply] 0.1 to 1 µM

[ask] Param item: CC[C@]1(c2cccc(N3CCCCC3)c2)C2=CN=NC2NC2=C1C(=O)CC(C)(C)C2 (stereo partly drawn) [US20250313563, Compound 810371]
[reply] > 5 µM

[ask] Param item: CC[C@]1(c2cccc(-c3cnn(C)c3)c2)C2=C(CC(C)(C)NC2=O)NC2N=NC(C)=C21 (stereo partly drawn) [US20250313563, Compound 945611]
[reply] > 5 µM

###

biological target: Glycogen synthase kinase-3 alpha (Homo sapiens); test: TR-FRET Assay
Sequence (P49840 whole entry): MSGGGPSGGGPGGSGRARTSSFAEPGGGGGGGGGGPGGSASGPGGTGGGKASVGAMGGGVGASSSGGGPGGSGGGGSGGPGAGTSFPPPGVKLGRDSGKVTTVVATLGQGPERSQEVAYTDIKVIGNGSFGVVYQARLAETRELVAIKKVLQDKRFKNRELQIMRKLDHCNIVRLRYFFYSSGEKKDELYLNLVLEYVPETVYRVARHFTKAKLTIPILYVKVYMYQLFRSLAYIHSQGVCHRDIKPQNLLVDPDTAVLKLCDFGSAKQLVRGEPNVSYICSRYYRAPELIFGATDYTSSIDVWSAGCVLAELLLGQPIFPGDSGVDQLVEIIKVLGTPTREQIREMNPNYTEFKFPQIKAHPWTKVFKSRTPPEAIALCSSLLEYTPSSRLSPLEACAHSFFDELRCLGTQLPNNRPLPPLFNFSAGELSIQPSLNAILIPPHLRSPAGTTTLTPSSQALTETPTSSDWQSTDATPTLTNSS
pIC50: −log10 of the molar value.
ASSAY METRIC: pIC50

CC[C@@]1(c2cccc(C3=C4CC=CC(C)=C4N=CC3)c2)C2=CN=NC2NC2=C1C(=O)NC(C)(C)C2 (some centres undefined): > 7.00
CC[C@@]1(c2cccc(-c3c(C)c(C)nn3C)c2)C2=CN=NC2NC2=C1C(=O)NC(C)(C)C2 (some centres undefined): > 7.00
CC[C@]1(c2ccccc2)C2=CN=NC2NC2=C1C(=O)CC1(CCCC1)C2 (some centres undefined): > 7.00

Next item in the queue.
[ask] I am curious: what pIC50 value has been reported for CC1(C)CC(=O)C2=C(C1)NC1N=NC(C3CC(F)(F)C3)=C1[C@@]21COc2ccccc21 (some centres undefined) ?
[reply] 5.30 to 6.00

###

target: Glycogen synthase kinase-3 beta (Homo sapiens, UniProt P49841)
Sequence (P49841 whole entry): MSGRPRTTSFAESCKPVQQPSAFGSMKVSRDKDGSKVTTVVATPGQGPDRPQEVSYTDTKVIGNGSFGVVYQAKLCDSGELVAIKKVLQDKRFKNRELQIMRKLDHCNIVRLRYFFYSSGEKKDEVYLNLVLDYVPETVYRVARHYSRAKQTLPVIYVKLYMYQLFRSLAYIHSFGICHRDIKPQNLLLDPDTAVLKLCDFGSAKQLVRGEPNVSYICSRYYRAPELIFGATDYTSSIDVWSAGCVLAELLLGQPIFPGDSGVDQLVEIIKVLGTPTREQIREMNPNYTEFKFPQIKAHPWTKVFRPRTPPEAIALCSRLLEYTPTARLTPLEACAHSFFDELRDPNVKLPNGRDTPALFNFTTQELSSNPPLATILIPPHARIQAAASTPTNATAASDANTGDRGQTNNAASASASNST
IC50 values by entry

Worked examples follow.
CC(C)(C)CC1=C2C(N=N1)NC1=C(C(=O)CC(C)(C)C1)[C@]21CCc2cc(F)ccc21 (some centres undefined): < 0.1 µM
CC[C@]1(c2cccc(N(C)c3ncccn3)c2)C2=C(CC(C)(C)NC2=O)NC2N=NC(C(F)F)=C21 (some centres undefined): 0.1 to 1 µM
CC[C@@]1(c2cccc(-c3c(F)cncc3OC)c2)C2=C(N=NC2)NC2=C1C(=O)C(C)(C)C2: > 5 µM

Next item in the queue.
[ask] I am curious: what IC50 value has been reported for CC[C@@]1(c2cccc(S(C)(=O)=O)c2)C2=C(CC(C)(C)NC2=O)NC2N=NC(C)=C21 (some centres undefined) ?
[reply] > 5 µM

###

target: Glycogen synthase kinase-3 beta (Homo sapiens, UniProt P49841)
pIC50: −log10 of the molar value.
ASSAY METRIC: pIC50

[ask] I am curious: what pIC50 value has been reported for CCC1(c2cccc(S(C)(=O)=O)c2)C2=C(CC(C)(C)NC2=O)NC2N=NC(C)=C21 (stereo not drawn) [US20250313563, Compound 947395B:] ?
[reply] > 7.00

[ask] Param item: CC[C@]1(c2cccc(N3CCOCC3)c2)C2=CN=NC2NC2=C1C(=O)CC(C)(C)C2 (stereo partly drawn)
[reply] < 5.30

[ask] Param item: CC[C@]1(c2cccc(-c3ccnc4cc(Cl)c(C)cc34)c2)C2=CN=NC2NC2=C1C(=O)NC(C)(C)C2 (stereo partly drawn)
[reply] < 5.30

[ask] Param item: CC[C@]1(c2cccc(C(F)(F)F)c2)C2=CN=NC2NC2=C1C(=O)N(C(C)(C)C)CC2 (stereo partly drawn)
[reply] < 5.30

[ask] Param item: CCC1(c2cccc(-c3cc(C)nnc3C)c2)C2=C(CC(C)(C)NC2=O)NC2N=NC(C)=C21 (stereo not drawn) [US20250313563, Compound 948765]
[reply] > 7.00

###

Here's a batch of compounds along with measured IC50 for UniProt:P49841.

CCC1(c2cccc(S(C)(=O)=O)c2)C2=C(CC(C)(C)NC2=O)NC2N=NC(C(F)(F)F)=C21 (stereo not given): < 0.1 µM
CC1(C)CC(=O)C2=C(C1)NC1=C(CN=N1)C21CCN(S(=O)(=O)c2cnn(C(C)(C)C)c2)CC1: 0.1 to 1 µM
CCC1(c2cccc(N3CCOCC3)c2)C2=C(CC(C)(C)CC2=O)NC2N=NC(C(F)(F)F)=C21 (stereo not given): < 0.1 µM

[ask] Give IC50 (UniProt:P49841) of the following compound: CCC1(c2cccc(C(F)F)c2)C2=CN=NC2NC2=C1C(=O)NC(C)(C)C2 (stereo not given)
[reply] 0.1 to 1 µM

[ask] Param item: O=C1C2=C(NC3N=NC=C3C23CCOCC3)[C@@H]2CC[C@H]1C2 (stereo not given in full)
[reply] 1 to 5 µM

[ask] Param item: CC[C@]1(c2cccc(-c3ccncc3)c2)C2=CN=NC2NC2=C1C(=O)C[C@@H](C)C2 (stereo not given in full)
[reply] < 0.1 µM

[ask] Param item: CCC1(CC)C2=C(N=NC2)NC2=C1C(=O)CC(C)(C)C2
[reply] > 5 µM

[ask] Param item: CC1N=NC2=C1C1(CCOCC1)C1=C(CC(C)(C)C(F)C1=O)N2 (stereo not given)
[reply] 0.1 to 1 µM

[ask] Param item: CC[C@@]1(c2cccc(C3CCOCC3)c2)C2=CN=NC2NC2=C1C(=O)CC(C)(C)C2 (stereo not given in full)
[reply] > 5 µM

[ask] Param item: CC[C@@]1(c2cccc(-c3ccncc3)c2)C2=CN=NC2NC2=C1C(=O)CC(C)(C)C2 (stereo not given in full)
[reply] 1 to 5 µM

###

target: Glycogen synthase kinase-3 beta (Homo sapiens)
ASSAY METRIC: IC50

Worked examples follow.
CCC1(c2cccc(C)c2)C2=C(N=NC2)NC2=C1C(=O)CC1(CCCC1)C2 (centres undefined): 100 to 1000 nM
CC[C@@]1(c2cccc(Cl)c2)C2=C(CC(C)(C)CC2=O)NC2N=NC(Br)=C21 (some centres undefined): 100 to 1000 nM
CC1(C)CC(=O)C2=C(C1)NC1=C(CN=N1)[C@]21CCO[C@H](C(F)(F)F)C1: > 5000 nM
CCC1(c2cccc(N3CCOCC3)c2)C2=C(CC(C)(C)CC2=O)NC2N=NC(C)=C21 (centres undefined): < 100 nM
CCC1(c2cccc(-c3ccnn3C)c2)C2=C(CC(C)(C)CC2=O)NC2N=NC(C)=C21 (centres undefined): < 100 nM

[ask] I am curious: what IC50 value has been reported for CCC1(c2cccc(C(F)(F)F)c2)C2=CN=NC2NC2=C1C(=O)N(c1cccnc1)CC2 (centres undefined) ?
[reply] 100 to 1000 nM

[ask] Param item: CC[C@]1(c2cccc(-c3ccnn3C)c2)C2=CN=NC2NC2=C1C(=O)N[C@]1(CCCOC1)C2 (some centres undefined)
[reply] > 5000 nM

[ask] Param item: CCC1(c2cccc(-c3cnn(C)c3)c2)C2=C(CC(C)(C)CC2=O)NC2N=NC(C)=C21 (centres undefined)
[reply] 100 to 1000 nM

[ask] Param item: CC[C@]1(c2cccc(-c3cnn(C)c3)c2)C2=CN=NC2NC2=C1C(=O)CC(C)(C)C2 (some centres undefined)
[reply] 100 to 1000 nM

###

Here's a batch of compounds along with measured IC50 for Glycogen synthase kinase-3 beta (Homo sapiens, UniProt P49841).

CCC1(c2cccc(C(F)(F)F)c2)C2=CN=NC2NC2=C1C(=O)N(c1ccccc1)CC2 (stereo not drawn) [US20250313563, Compound 917211]: 100 to 1000 nM
CC[C@@]1(c2cccc(N(C)c3cnccn3)c2)C2=CN=NC2NC2=C1C(=O)CC(C)(C)C2 (stereo partly drawn) [US20250313563, Compound 915340]: 1000 to 5000 nM

Next item in the queue.
[ask] I am curious: what IC50 value has been reported for CC[C@]1(c2cccc(C(F)(F)F)c2)C2=CN=NC2NC2=C1C(=O)CC(C)(C)C2 (stereo partly drawn) [US20250313563, Compound 790754] ?
[reply] 1000 to 5000 nM
